# key: entry, value: cytotoxicity at 70.5 h
Experiment: Human HepG2 cell viability assay in 384 well format
Assay type: toxicity, cell-based
Set-up: dose 125 nL, time 70.5 hour; concentration not given beside the values
Settings: HepG2 cells, read-out: Inhibition
Kindly write the number and append the unit.

Lab note: measured cytotoxicity at 70.5 h of CNC(=O)C1CCN(C(=O)c2coc(COc3ccc(OC)cc3)n2)C1 (configuration not stated) was -2.27%

The value of cytotoxicity at 70.5 h measured for the compound CCC(=O)NC1CCCN(C(=O)Nc2cccc(COC(C)C)c2)C1 (configuration not stated) turned out to be 7.06%

Measured cytotoxicity at 70.5 h, COc1ccc(NCc2ccccc2N2CCN(C(C)=O)CC2)cn1 : 0.712%

The compound listed as OC1(CNCc2ccc(F)c(C(F)(F)F)c2)CCOC1 (configuration not stated) has a reported cytotoxicity at 70.5 h of -2.64%

So for C[C@@H]1CN(Cc2nc(Cc3ccccc3F)no2)C[C@H](C)O1 , the logged cytotoxicity at 70.5 h turned out to be 32.5%

Looking up COc1c(CNCCNC(=O)c2ccccc2)c(C)nn1C , I see its cytotoxicity at 70.5 h listed as -1.1%

Given item COCC[C@]1(O)CCN(C(=O)c2cnn(C)c2)C[C@H]1C , the value recorded as its cytotoxicity at 70.5 h is -0.906%
